Reported GI50 values follow for various compounds
test system: U-251; test: NCI tumour cell line growth inhibition, 48 h
Calls of active or inactive are those of the source. No stated cut-off is given here; in the data, active = GI50 up to about 1.1 µM and inactive = higher.

CCC1=C(c2ccc(OC)cc2)CC[C@]2(CCNC2=O)[C@@H]1C ... 29.9 µM (inactive)

Q: Requested field: GI50. Item: "CCc1c(O)cc(=O)oc1-c1ccc(OC)c(OC)c1"
Result: > 100 µM (inactive)

Q: Requested field: GI50. Item: "CO[C@@H]1C[C@H]2[C@@H]3CC[C@H]([C@H](C)CO)[C@@]3(C)CC[C@@H]2[C@@]2(C)CC[C@H]3C[C@]312"
Result: 27.6 µM (inactive)

Q: Requested field: GI50. Item: CC(NC(=O)C(N)CC(=O)O)NC(=O)C1CCC1 (stereo not given)
Result: > 100 µM (inactive)

Q: Requested field: GI50. Item: "NS(=O)(=O)c1ccc(NNc2c3ccccc3nc3c(C(=O)Nc4ccc(S(=O)(=O)Nc5ncccn5)cc4)cccc23)cc1"
Result: > 25 µM (inactive)

====

system: MCF7; experiment: NCI tumour cell line growth inhibition, 48 h
Calls of active or inactive are those of the source. Cut-off read from the data, not from the text of the source: active = GI50 up to about 1.1 µM and inactive = higher.
quantity.measured: GI50

CC(=O)Oc1ccn2nc(C)c(Cc3c(C)nn4ccc(OC(C)=O)cc34)c2c1 ... > 10 µM (inactive)
CC1CN1C(=O)NCCCCCCNC(=O)N1CC1C (centres undefined) ... 70.3 µM (inactive)
O=S1(=O)OCCCOS(=O)(=O)C1Br ... > 100 µM (inactive)
[N-]=[N+]=NC[C@H]1OCO[C@H](CN=[N+]=[N-])[C@H]2OCCOCCOc3ccccc3OCCOCCO[C@@H]21 ... > 100 µM (inactive)
Cn1c(SCc2c[nH]c3ccccc23)nnc1-c1ccc(Cl)cc1Cl ... 22.7 µM (inactive)
CC1=CC(=O)C(=C(C)C)CC1 ... > 100 µM (inactive)

Q: Requested field: GI50. Item: COc1ccc2c(c1)C1OCCNC1CC2 (centres undefined)
Result: > 100 µM (inactive)

Q: Requested field: GI50. Item: "CC[C@@H](C)[C@H]([C@H](CC(=O)N1CCC[C@@H]1[C@@H](OC)[C@H](C)C(=O)N[C@H](Cc1ccccc1)c1nccs1)OC)N(C)C(=O)[C@H](NC(=O)[C@@H](C(C)C)N(C)C)C(C)C"
Result: < 0.01 µM (active)

Q: Requested field: GI50. Item: CO[C@H]1C=CO[C@@]2(C)Oc3c(C)c(O)c4c(O)c(c(CN5CCN(C)CC5)c(O)c4c3C2=O)NC(=O)/C(C)=C\C=C[C@H](C)[C@H](O)C(C)[C@@H](O)C(C)[C@H](OC(C)=O)[C@@H]1C (some centres undefined)
Result: 11.1 µM (inactive)

Q: Requested field: GI50. Item: "CC(C)(C)c1ccc2c(c1)OCc1n[nH]c(n1)COc1cc(C(C)(C)C)ccc1OCCOCCO2"
Result: 3.31 µM (inactive)

Q: Requested field: GI50. Item: CNC(=O)/C=C/C1=CN2C(=O)c3ccc(C)c(O)c3NC(OC)C2C1 (centres undefined)
Result: < 0.0163 µM (active)

Q: Requested field: GI50. Item: "c1ccc2c3c([nH]c2c1)C1c2[nH]c4ccccc4c2CCN1CC3"
Result: 10.1 µM (inactive)

Q: Requested field: GI50. Item: "CCOC(=O)O/C(=C\c1ccc(OC)cc1)c1c(OC(=O)OCC)n(C(=O)OCC)c2ccccc12"
Result: 25.1 µM (inactive)

Q: Requested field: GI50. Item: "Cc1cc(O)cc(O)c1/N=N/c1ccc([N+](=O)[O-])cc1"
Result: 16.5 µM (inactive)

Q: Requested field: GI50. Item: CN(CCCCCl)P(=O)(OCc1ccc([N+](=O)[O-])o1)OC[C@H]1O[C@@H](n2cc(F)c(=O)[nH]c2=O)C[C@@H]1O (some centres undefined)
Result: < 0.0227 µM (active)

Q: Requested field: GI50. Item: "CCC[N+](C)(C)CCCNC(=O)c1c(O)c2ccccc2[nH]c1=O"
Result: > 100 µM (inactive)

Q: Requested field: GI50. Item: O=C(O)CNCP(=O)(O)O [GLYPHOSATE]
Result: > 100 µM (inactive)

Q: Requested field: GI50. Item: "O=C1C=CC[C@H](/C=C/C[C@@H](O)C[C@H](O)/C=C/c2ccccc2)O1"
Result: 12.4 µM (inactive)

Q: Requested field: GI50. Item: "N#Cc1cnc(-n2[nH]c3c(c2=O)CCCC3)[nH]c1=O"
Result: 39.8 µM (inactive)

====

tested on: SF-268; assay: NCI tumour cell line growth inhibition, 48 h
Active and inactive are the calls of the source. No stated cut-off is given here; in the data, active = GI50 up to about 1.1 µM and inactive = higher.
Reported GI50 values follow for various molecules

O=C1CC2C(=O)C1C(C(=O)O)C2C(=O)O (stereo not given) ... > 100 µM (inactive)

Q: Requested field: GI50. Item: "O=P(O)(Cc1ccccc1)c1ccccc1-c1ccccc1"
Result: > 100 µM (inactive)

Q: Requested field: GI50. Item: "CN(O)C(=O)c1ccc(OCc2cccc(Cl)c2)cc1"
Result: 21.2 µM (inactive)

Q: Requested field: GI50. Item: "CCC/C=C/c1cc2c(cc1O)CC[C@@H]1[C@@H]2CC[C@]2(C)[C@@H](O)CC[C@@H]12"
Result: 18.4 µM (inactive)

Q: Requested field: GI50. Item: "O=C1/C(=C/c2ccccc2)CN(C(=O)OCc2ccccc2)C/C1=C\c1ccccc1"
Result: 13.8 µM (inactive)

Q: Requested field: GI50. Item: "Cc1ccc(S(=O)(=O)N(CCN)c2cc3c4c(c2)Oc2cccc5c2C4c2c(cccc2O3)O5)cc1"
Result: 14.4 µM (inactive)

====

tested on: UACC-62; assay: NCI tumour cell line growth inhibition, 48 h
The source made the active and inactive calls. No stated cut-off is given here; in the data, active = GI50 up to about 1.1 µM and inactive = higher.
Output constraint: value belongs to YES (active), NO (inactive)

The following compounds have reported results that may help.
C[n+]1cn(-c2nc3ccccc3nc2[N-]S(=O)(=O)c2ccccc2)c2ccccc21 ... NO
C#Cc1ccccc1C(=O)OC ... NO
CCc1c(O)cc(=O)oc1-c1ccc(OC)c(OC)c1 ... NO
CCOC(=O)C(=[N+]=[N-])C(=O)CSC#N ... NO

Q: // return assay outcome for "CNC(=S)N(C)C(=S)Nn1c(=O)c(C)nn(C)c1=S"
Result: NO

Q: // return assay outcome for "Cn1cnc2c1c(=O)n(CCNCCO)c(=O)n2C"
Result: NO

Q: // return assay outcome for O=C1O/C(=C\C=C\CO)C=C1/C=C/CO [LISSOCLINOLIDE]
Result: NO

Q: // return assay outcome for "Cc1c(C#N)c2nnn(-c3ccc(Cl)cc3)c(=O)n2c1-c1ccccc1"
Result: YES

Q: // return assay outcome for "COC(=O)C1=NN2c3ccccc3CN([C@@H](C)c3ccccc3)C(=O)[C@H]2[C@@H]1C"
Result: NO

Q: // return assay outcome for COC(=O)C1=C(O)C(C(=O)OC)[C@@]2(O)[C@@H](C(=O)OC)C(c3ccc(OC(=O)/C(=C/c4ccccc4)c4ccccc4)cc3)C[C@@H]1[C@@H]2C(=O)OC (stereo not given in full)
Result: NO

====

Reported GI50 values follow for various molecules
system: OVCAR-3; assay: NCI tumour cell line growth inhibition, 48 h
Activity calls are given as the source filed them. Rule as the data show it: active = GI50 up to about 1.1 µM and inactive = higher.

CN(O)C(=O)c1ccc(OCc2cccc(Cl)c2)cc1 ... 19.2 µM (inactive)
CC(C)[Si]1(C(C)C)OCC2OC(N3C(=O)NC(=O)C[C@@H]3C(O)c3ccccc3)CC2O[Si](C(C)C)(C(C)C)O1 (some centres undefined) ... 4.83 µM (inactive)
NS(=O)(=O)c1cc(Br)c(/N=N\c2ccc(O)c3ncccc23)c(Br)c1 ... 54.6 µM (inactive)

Q: Give GI50 (OVCAR-3) of the following molecule: "CC(=O)Oc1ccn2nc(C)c(Cc3c(C)nn4ccc(OC(C)=O)cc34)c2c1"
Result: > 100 µM (inactive)

Q: Give GI50 (OVCAR-3) of the following molecule: "O=C1c2ccccc2C(=O)c2c(Nc3cc4c5c(ccc6c7ccc8c9c(cc(Nc%10cccc%11c%10C(=O)c%10ccccc%10C%11=O)c(c3c56)c97)-c3ccccc3C8=O)C(=O)c3ccccc3-4)cccc21"
Result: 41.2 µM (inactive)

====

tested on: HCC 2998; assay: NCI tumour cell line growth inhibition, 48 h
Active and inactive are the calls of the source. No stated cut-off is given here; in the data, active = GI50 up to about 1.1 µM and inactive = higher.
quantity.measured: GI50

Q: Requested field: GI50. Item: "Cn1c2ccccc2n2c(=O)c(-c3ccc(O)cc3)nnc12"
Result: > 100 µM (inactive)

Q: Requested field: GI50. Item: CN(C)CCN(C)CC1COC(C)(C)O1 (stereo unspecified)
Result: > 100 µM (inactive)

Q: Requested field: GI50. Item: "Cc1ncc(CBr)c(CBr)c1O"
Result: > 100 µM (inactive)

Q: Requested field: GI50. Item: CCC(C)[C@@H](NC1=C(Cl)C(=O)c2c(O)ccc(O)c2C1=O)C(=O)OC (stereo partly specified)
Result: > 10 µM (inactive)

Q: Requested field: GI50. Item: "Cc1cc(N(CCC#N)CCC#N)ccc1/C=C1\SC(=S)NC1=O"
Result: > 100 µM (inactive)
